Each recorded value in this set is attributed to patent US20210388087A1.

# target: T1, Biotin-labeled CD3 epsilon peptide antigen (human, also: biotin-labeled, site not given here)
# T1 construct: also called CD3 peptide
# T1 peptide: QDGNEEMGGITQTPY
# protocol: bead ELISA, IgG on biotinylated CD3 epsilon peptide, luminescence
Where no end group is shown, it is not given here.
endpoint: RLU (RLU)
// note: answer is a bare numeric in RLU

Sample records with RLU:
DXDU01_3#072 (antibody, V domains shown, Human IgG1; light chain GLS3000 (kappa); also called dBBDu122) VH: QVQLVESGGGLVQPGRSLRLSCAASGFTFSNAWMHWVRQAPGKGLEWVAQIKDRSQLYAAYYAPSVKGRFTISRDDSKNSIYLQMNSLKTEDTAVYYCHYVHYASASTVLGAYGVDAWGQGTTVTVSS VL: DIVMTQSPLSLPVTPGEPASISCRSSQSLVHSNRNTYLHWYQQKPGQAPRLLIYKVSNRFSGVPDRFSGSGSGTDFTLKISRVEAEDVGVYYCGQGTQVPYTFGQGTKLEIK = 177000
DADU01_3#002 (antibody, V domains shown, Human IgG1; light chain GLS3000 (kappa); also called dBBDu124) VH: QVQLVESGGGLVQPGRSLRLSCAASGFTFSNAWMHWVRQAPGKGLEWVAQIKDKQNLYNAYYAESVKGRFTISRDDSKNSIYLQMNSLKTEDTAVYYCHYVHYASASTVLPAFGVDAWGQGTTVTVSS VL: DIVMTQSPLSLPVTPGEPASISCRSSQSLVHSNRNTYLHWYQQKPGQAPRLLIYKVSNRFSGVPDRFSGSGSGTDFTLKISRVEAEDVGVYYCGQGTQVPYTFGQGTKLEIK = 174000
DXDU01_3#019 (antibody, V domains shown, Human IgG1; light chain GLS3000 (kappa); also called dBBDu125) VH: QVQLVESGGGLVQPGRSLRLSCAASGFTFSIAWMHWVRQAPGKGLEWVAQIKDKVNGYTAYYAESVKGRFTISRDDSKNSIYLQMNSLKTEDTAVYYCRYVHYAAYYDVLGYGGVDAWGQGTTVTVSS VL: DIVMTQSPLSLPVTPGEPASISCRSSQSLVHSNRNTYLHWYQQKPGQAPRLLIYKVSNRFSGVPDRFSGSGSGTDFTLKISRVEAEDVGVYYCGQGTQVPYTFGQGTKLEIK = 191000

Then there is this binder:
Q) What value of RLU has been reported for the following binder? DXDU01_3#051 (antibody, V domains shown, Human IgG1; light chain GLS3000 (kappa); also called dBBDu127) VH: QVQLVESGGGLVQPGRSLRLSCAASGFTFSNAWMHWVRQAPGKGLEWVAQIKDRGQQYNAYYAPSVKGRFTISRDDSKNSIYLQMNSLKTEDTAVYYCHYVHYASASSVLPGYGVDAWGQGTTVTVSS VL: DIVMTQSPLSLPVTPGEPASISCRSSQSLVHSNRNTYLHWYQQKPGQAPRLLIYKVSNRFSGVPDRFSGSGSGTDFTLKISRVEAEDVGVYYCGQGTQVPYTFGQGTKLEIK
A) 169000
